Reference source: PubChem BioAssay AID1963965

Measured viability, T/C values are reported for all entries that follow.
- System: 996289-038-R-J1-PDC spheroid viability
- test details: Anticancer human tumor 996289-038-R-J1-PDC patient-derived colon adenocarcinoma cell line growth inhibition [PI3K]
- assay setup: second compound 1 µM; first compound 3.16 µM; stronger effect = lower value; spheroids with HUVEC and MSC

molecule	measurement unit	viability, T/C
C=CC(=O)N1CCN(c2nc(=O)n(-c3c(C)ccnc3C(C)C)c3nc(-c4c(O)cccc4F)c(F)cc23)C(C)C1 (stereo unspecified) + CC(Nc1ncnc2nc[nH]c12)c1cc2cccc(Cl)c2c(=O)n1-c1ccccc1	%	112
C#Cc1c(F)ccc2cc(O)cc(-c3ncc4c(N5CC6CCC(C5)N6)nc(OCC56CCCN5CC(F)C6)nc4c3F)c12 (stereo unspecified) + COc1c(OCCCN2CCOCC2)ccc2c3n(c(=NC(=O)c4cnc(N)nc4)nc12)CCN3	%	5.65
CC1(C)CCC(Nc2ncc(C(F)(F)F)c(-c3c[nH]c4c(P(C)(C)=O)c(C#N)ccc34)n2)CN1 (stereo unspecified) + COc1c(OCCCN2CCOCC2)ccc2c3n(c(=NC(=O)c4cnc(N)nc4)nc12)CCN3	%	15.1
Cn1ncc(Cl)c1-c1cc(C(=O)NC(CN)Cc2cccc(F)c2)sc1Cl (stereo unspecified) + CC(Nc1ncnc2nc[nH]c12)c1cc2cccc(Cl)c2c(=O)n1-c1ccccc1	%	71.2
CC(Cn1ccc(-c2ccc(C#N)c(Cl)c2)n1)NC(=O)c1cc(C(C)O)[nH]n1 (stereo unspecified) + CC(Nc1ccc2c(c1)OCCn1cc(N3C(=O)OCC3C(F)F)nc1-2)C(N)=O	%	58
C#Cc1c(F)ccc2cc(O)cc(-c3ncc4c(N5CC6CCC(C5)N6)nc(OCC56CCCN5CC(F)C6)nc4c3F)c12 (stereo unspecified) + CC(Nc1ncnc2nc[nH]c12)c1cc2cccc(Cl)c2c(=O)n1-c1ccccc1	%	35.6
CC(C)NCC(C(=O)N1CCN(c2ncnc3c2C(C)CC3O)CC1)c1ccc(Cl)cc1 (stereo unspecified) + Cc1nc(NC(=O)N2CCCC2C(N)=O)sc1-c1ccnc(C(C)(C)C(F)(F)F)c1	%	59.5
C[C@@H](NC(=O)c1ncnc(N)c1Cl)c1ncc(C(=O)Nc2cc(C(F)(F)F)c(Cl)cn2)s1 + COc1c(OCCCN2CCOCC2)ccc2c3n(c(=NC(=O)c4cnc(N)nc4)nc12)CCN3	%	29
CC(C)NCC(C(=O)N1CCN(c2ncnc3c2C(C)CC3O)CC1)c1ccc(Cl)cc1 (stereo unspecified) + COc1c(OCCCN2CCOCC2)ccc2c3n(c(=NC(=O)c4cnc(N)nc4)nc12)CCN3	%	20.1
C=CC(=O)N1CCN(c2nc(=O)n(-c3c(C)ccnc3C(C)C)c3nc(-c4c(O)cccc4F)c(F)cc23)C(C)C1 (stereo unspecified) + COc1c(OCCCN2CCOCC2)ccc2c3n(c(=NC(=O)c4cnc(N)nc4)nc12)CCN3	%	23.3
Cn1nccc1Nc1nccc(-c2ccn(C(CO)c3ccc(Cl)c(F)c3)c(=O)c2)n1 (stereo unspecified) + CC(Nc1ncnc2nc[nH]c12)c1cc2cccc(Cl)c2c(=O)n1-c1ccccc1	%	76.9

###

- Tested on: 996289-038-R-J1-PDC spheroid viability
- test details: Anticancer human tumor 996289-038-R-J1-PDC cell line growth inhibition [PI3K];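 further: spheroids exposed to compounds for seven days before viability read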
- assay setup: curve of first compound; second compound 0.0316 µM; spheroids with HUVEC and MSC

compound	assayed system	measurement unit	comparison operator	IC50
C=CC(=O)N1CCN(c2nc(=O)n(-c3c(C)ccnc3C(C)C)c3nc(-c4c(O)cccc4F)c(F)cc23)C(C)C1 (stereo not given) + COc1c(OCCCN2CCOCC2)ccc2c3n(c(=NC(=O)c4cnc(N)nc4)nc12)CCN3	996289-038-R-J1-PDC spheroid viability	µM	>	10
C=CC(=O)N1CCN(c2nc(=O)n(-c3c(C)ccnc3C(C)C)c3nc(-c4c(O)cccc4F)c(F)cc23)C(C)C1 (stereo not given) + Cc1nc(NC(=O)N2CCCC2C(N)=O)sc1-c1ccnc(C(C)(C)C(F)(F)F)c1	996289-038-R-J1-PDC spheroid viability	µM	>	10
CC(=O)c1c(C)c2cnc(Nc3ccc(N4CCNCC4)cn3)nc2n(C2CCCC2)c1=O + Cc1nc(NC(=O)N2CCCC2C(N)=O)sc1-c1ccnc(C(C)(C)C(F)(F)F)c1	996289-038-R-J1-PDC spheroid viability	µM	>	0.1
CC1(C)CCC(CN2CCN(c3ccc(C(=O)NS(=O)(=O)c4ccc(NCC5CCOCC5)c([N+](=O)[O-])c4)c(Oc4cnc5[nH]ccc5c4)c3)CC2)=C(c2ccc(Cl)cc2)C1 + COc1c(OCCCN2CCOCC2)ccc2c3n(c(=NC(=O)c4cnc(N)nc4)nc12)CCN3	996289-038-R-J1-PDC spheroid viability	µM	=	5.77
CC1(C)CCC(Nc2ncc(C(F)(F)F)c(-c3c[nH]c4c(P(C)(C)=O)c(C#N)ccc34)n2)CN1 (stereo not given) + CC(Nc1ncnc2nc[nH]c12)c1cc2cccc(Cl)c2c(=O)n1-c1ccccc1	996289-038-R-J1-PDC spheroid viability	µM	=	6.14
Cn1ncnc1[C@H]1c2n[nH]c(=O)c3cc(F)cc(c23)N[C@@H]1c1ccc(F)cc1 + CC(Nc1ccc2c(c1)OCCn1cc(N3C(=O)OCC3C(F)F)nc1-2)C(N)=O	996289-038-R-J1-PDC spheroid viability	µM	>	0.1
CNC(=O)c1ccc(N2C(=S)N(c3ccc(C#N)c(C(F)(F)F)c3)C(=O)C2(C)C)cc1F + CC(Nc1ccc2c(c1)OCCn1cc(N3C(=O)OCC3C(F)F)nc1-2)C(N)=O	996289-038-R-J1-PDC spheroid viability	µM	>	10
C#Cc1c(F)ccc2cc(O)cc(-c3ncc4c(N5CC6CCC(C5)N6)nc(OCC56CCCN5CC(F)C6)nc4c3F)c12 (stereo not given) + COc1c(OCCCN2CCOCC2)ccc2c3n(c(=NC(=O)c4cnc(N)nc4)nc12)CCN3	996289-038-R-J1-PDC spheroid viability	µM	=	0.231
C[C@@H](NC(=O)c1ncnc(N)c1Cl)c1ncc(C(=O)Nc2cc(C(F)(F)F)c(Cl)cn2)s1 + CC(Nc1ccc2c(c1)OCCn1cc(N3C(=O)OCC3C(F)F)nc1-2)C(N)=O	996289-038-R-J1-PDC spheroid viability	µM	>	10
C#Cc1c(F)ccc2cc(O)cc(-c3ncc4c(N5CC6CCC(C5)N6)nc(OCC56CCCN5CC(F)C6)nc4c3F)c12 (stereo not given) + CC(Nc1ccc2c(c1)OCCn1cc(N3C(=O)OCC3C(F)F)nc1-2)C(N)=O	996289-038-R-J1-PDC spheroid viability	µM	=	0.641
CC1(C)CCC(Nc2ncc(C(F)(F)F)c(-c3c[nH]c4c(P(C)(C)=O)c(C#N)ccc34)n2)CN1 (stereo not given) + CC(Nc1ccc2c(c1)OCCn1cc(N3C(=O)OCC3C(F)F)nc1-2)C(N)=O	996289-038-R-J1-PDC spheroid viability	µM	=	6.69
CCCS(=O)(=O)Nc1ccc(F)c(C(=O)c2c[nH]c3ncc(-c4ccc(Cl)cc4)cc23)c1F + COc1c(OCCCN2CCOCC2)ccc2c3n(c(=NC(=O)c4cnc(N)nc4)nc12)CCN3	996289-038-R-J1-PDC spheroid viability	µM	=	5.1
Cn1nccc1Nc1nccc(-c2ccn(C(CO)c3ccc(Cl)c(F)c3)c(=O)c2)n1 (stereo not given) + CC(Nc1ncnc2nc[nH]c12)c1cc2cccc(Cl)c2c(=O)n1-c1ccccc1	996289-038-R-J1-PDC spheroid viability	µM	>	10
CC(C)n1nc(-c2ccc3oc(N)nc3c2)c2c(N)ncnc21 + COc1c(OCCCN2CCOCC2)ccc2c3n(c(=NC(=O)c4cnc(N)nc4)nc12)CCN3	996289-038-R-J1-PDC spheroid viability	µM	=	0.0316
CC(=O)c1c(C)c2cnc(Nc3ccc(N4CCNCC4)cn3)nc2n(C2CCCC2)c1=O + CC(Nc1ccc2c(c1)OCCn1cc(N3C(=O)OCC3C(F)F)nc1-2)C(N)=O	996289-038-R-J1-PDC spheroid viability	µM	>	0.1
